Target: B-Raf (V600E)-kinase (Homo sapiens (Human), UniProt P15056, V600E)
Sequence (P15056 whole entry V600E): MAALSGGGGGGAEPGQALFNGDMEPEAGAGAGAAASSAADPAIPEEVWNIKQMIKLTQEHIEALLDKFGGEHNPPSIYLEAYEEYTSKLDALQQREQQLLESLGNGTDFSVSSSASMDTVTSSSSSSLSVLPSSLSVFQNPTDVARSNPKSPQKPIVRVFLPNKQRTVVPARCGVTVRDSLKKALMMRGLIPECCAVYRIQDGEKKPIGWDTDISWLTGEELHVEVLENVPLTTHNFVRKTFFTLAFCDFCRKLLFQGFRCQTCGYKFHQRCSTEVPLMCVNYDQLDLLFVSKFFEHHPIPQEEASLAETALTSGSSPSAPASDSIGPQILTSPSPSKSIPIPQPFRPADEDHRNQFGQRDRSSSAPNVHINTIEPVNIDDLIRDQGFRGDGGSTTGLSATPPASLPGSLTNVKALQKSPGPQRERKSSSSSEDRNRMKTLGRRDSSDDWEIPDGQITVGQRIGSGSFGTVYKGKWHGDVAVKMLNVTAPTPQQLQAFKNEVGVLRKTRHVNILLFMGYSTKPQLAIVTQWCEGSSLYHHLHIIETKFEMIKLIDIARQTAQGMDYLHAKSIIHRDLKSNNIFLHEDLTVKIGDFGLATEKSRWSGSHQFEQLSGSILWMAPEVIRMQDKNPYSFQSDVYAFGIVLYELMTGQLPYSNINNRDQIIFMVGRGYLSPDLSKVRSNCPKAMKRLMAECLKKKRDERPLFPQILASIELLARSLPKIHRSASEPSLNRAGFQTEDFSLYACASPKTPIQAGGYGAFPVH
Experiment: Kinase test B-RAF (V600E)
Assay type: biochemical
Conditions: B-RAF (V600E) kinase test, 250 μM ATP
MEASURED_METRIC: IC50 (nM)

Recorded result, COc1c(NC(=O)c2ccc(C)c(Nc3ncnc4cnc(N5CCCN(C)CC5)nc34)c2)cc(C(C)(C)C)cc1NS(C)(=O)=O , IC50: 17

Recorded result, Cc1ccc(C(=O)Nc2ccc(F)c(C(F)(F)F)c2)cc1Nc1ncnc2cnc(N3CC[C@H](F)C3)nc12 , IC50: 3

Recorded result, Cc1ccc(C(=O)Nc2cc(N3CCOCC3)cc(C(F)(F)F)c2)cc1Nc1ncnc2cnc(N3CCOCC3)nc12 , IC50: 3

A: COc1ccc(NC(=O)c2ccc(F)c(Nc3ncnc4cnc(N5CCN(C(C)C)CC5)nc34)c2)cc1C(F)(F)F
B: CN1CCN(c2nc(N)c3ncnc(Nc4cc(C(=O)Nc5cccc(C(F)(F)F)c5)ccc4Cl)c3n2)CC1
C: Cc1ccc(C(=O)Nc2cc(N3CCN(C)CC3)cc(C(F)(F)F)c2)cc1Nc1ncnc2cnc(N3CCOCC3)nc12
D: Cc1ccc(C(=O)Nc2nnc(C(F)(F)F)s2)cc1Nc1ncnc2cnc(N3CCN(C)CC3)nc12
Q) Exam item: list the entries in increasing order of IC50. In your reply, arrange the labels in the requested order.
A) C, A, B, D

* * *

Biological target: B-Raf (V600E)-kinase (Homo sapiens (Human), UniProt P15056, V600E)
Assay: Kinase test B-RAF (V600E)
Type: biochemical
Conditions: B-RAF (V600E) kinase test, 250 μM ATP
Description: Kinase Test B-RAF (V600E) In a dilution series 10 μL of test substance solution are placed in a multiwell plate. The dilution series is selected so that generally a range of concentrations of 2 μM to 0.119 nM or 0.017 nM is covered. […] After the addition of 200 μL Enhancement Solution (Perkin Elmer, #4001-0010/#1244-105) the mixture is shaken for 10 min at RT and then measured in a Wallac Victor using the program “Delfia Time Resolved Fluorescence (Europium)”. […]
pIC50: −log10 of the molar value.
MEASURED_METRIC: pIC50

1: Cc1ccc(C(=O)Nc2ccc3c(c2)C(C)(C)C(=O)N3CCN2CCCC2)cc1Nc1ncnc2cnc(N3CCN(C)CC3)nc12
2: COc1ccc(NC(=O)c2ccc(C)c(Nc3ncnc4c(N)nc(N5CCN(CC6CCN(C)CC6)CC5)nc34)c2)cc1C(F)(F)F
3: COc1ccc(NC(=O)c2ccc(C(F)(F)F)c(Nc3ncnc4cnc(N(C)C)nc34)c2)cc1C(F)(F)F
4: COC[C@@H]1CCCN1c1ncc2ncnc(Nc3cc(C(=O)Nc4cc(C(C)(C)C)on4)ccc3C)c2n1
Q) Put the compounds in ascending order of pIC50. In your reply, arrange the labels in the requested order.
A) 3, 1, 4, 2

* * *

Target: B-Raf (V600E)-kinase (Homo sapiens (Human), UniProt P15056, V600E)
Assay: Kinase test B-RAF (V600E)
Type: biochemical
Conditions: B-RAF (V600E) kinase test, 250 μM ATP
pIC50: −log10 of the molar value.
MEASURED_METRIC: pIC50

Some compounds with recorded pIC50:
Recorded result, COc1ccc(C(F)(F)F)cc1NC(=O)c1ccc(C)c(Nc2ncnc3cnc(N4CCN(CC5CCN(C)CC5)CC4)nc23)c1 , pIC50: > 9.00

Recorded result, CN(C)CCNc1ncc2ncnc(Nc3cc(C(=O)Nc4cc(C(C)(C)C)on4)ccc3F)c2n1 , pIC50: 9.00

Recorded result, Cc1ccc(C(=O)Nc2cccc(C(F)(F)F)c2)cc1Nc1ncnc2cnc(NC3CCOC3)nc12 (centres unmarked) , pIC50: > 9.00

Recorded result, Cc1ccc(C(=O)Nc2cc(C(F)(F)F)ccn2)cc1Nc1ncnc2cnc(N3CCN(C)CC3)nc12 , pIC50: > 9.00

Would you kindly look at the next entry?
Recorded result, Cc1ccc(C(=O)Nc2cccc(OC(F)(F)F)c2)cc1Nc1ncnc2cnc(N3CCCN(C)CC3)nc12 , pIC50: > 9.00

* * *

Target: B-Raf (V600E)-kinase (Homo sapiens (Human), UniProt P15056, V600E)
Test: Kinase test B-RAF (V600E)
Format: biochemical
Details: B-RAF (V600E) kinase test, 250 μM ATP
pIC50: −log10 of the molar value.
MEASURED_METRIC: pIC50

Some molecules with recorded pIC50:
pIC50 value, target or system B-Raf (V600E)-kinase (Homo sapiens (Human), UniProt P15056, V600E), for Cc1ccc(C(=O)Nc2cccc(C(C)(C)C#N)c2)cc1Nc1ncnc2cnc(N3CCCN(C)CC3)nc12 : 8.52

pIC50 value, target or system B-Raf (V600E)-kinase (Homo sapiens (Human), UniProt P15056, V600E), for Cc1ccc(C(=O)Nc2cc(C(C)(C)C)n[nH]2)cc1Nc1ncnc2c(N)nc(N3CCN4CCCCC4C3)nc12 (centres unmarked) : 8.40

pIC50 value, target or system B-Raf (V600E)-kinase (Homo sapiens (Human), UniProt P15056, V600E), for COCCN1CCN(c2ncc3ncnc(Nc4cc(C(=O)Nc5ccc(OC)c(C(F)(F)F)c5)ccc4C)c3n2)CC1 : 8.70

pIC50 value, target or system B-Raf (V600E)-kinase (Homo sapiens (Human), UniProt P15056, V600E), for COc1ncc2ncnc(Nc3cc(C(=O)Nc4cc(C(C)(C)C)on4)ccc3C)c2n1 : 8.70

pIC50 value, target or system B-Raf (V600E)-kinase (Homo sapiens (Human), UniProt P15056, V600E), for Cc1ccc(NC(=O)c2cccc(C(C)(C)C#N)c2)cc1Nc1ncnc2cnc(N3CC[C@H](F)C3)nc12 : 8.70

A: Cc1ccc(C(=O)Nc2cc(CN3CCCC3)cc(C(F)(F)F)c2)cc1Nc1ncnc2cnc(NCc3ccncc3)nc12
B: COc1ccc(C(C)(C)C)cc1NC(=O)c1ccc(C)c(Nc2ncnc3cnc(N4CCOCC4)nc23)c1
Q) Could you point out whether the larger pIC50 belongs to A or to B ? Please identify the chosen entry by its label.
A) A

* * *

Target: B-Raf (V600E)-kinase (Homo sapiens (Human), UniProt P15056, V600E)
Assay: Kinase test B-RAF (V600E)
Assay type: biochemical
Details: B-RAF (V600E) kinase test, 250 μM ATP
Listed compounds paired with reported IC50

IC50 value, target or system B-Raf (V600E)-kinase (Homo sapiens (Human), UniProt P15056, V600E), for Cc1ccc(C(=O)Nc2cccc(C(F)(F)F)c2)cc1Nc1ncnc2cnc(N3CCOCC3)nc12 : < 0.001 µM

IC50 value, target or system B-Raf (V600E)-kinase (Homo sapiens (Human), UniProt P15056, V600E), for Cc1ccc(C(=O)Nc2cc(OCCN(C)C)cc(C(F)(F)F)c2)cc1Nc1ncnc2cnc(NC3CC3)nc12 : < 0.001 µM

***
IC50 value, target or system B-Raf (V600E)-kinase (Homo sapiens (Human), UniProt P15056, V600E), for COc1ccc(C(F)(F)F)cc1NC(=O)c1ccc(C)c(Nc2ncnc3cnc(N4CCOCC4)nc23)c1 : < 0.001 µM

IC50 value, target or system B-Raf (V600E)-kinase (Homo sapiens (Human), UniProt P15056, V600E), for Cc1ccc(C(=O)NC2CCCCC2)cc1Nc1ncnc2cnc(N3CCN(C)CC3)nc12 : > 15 µM

IC50 value, target or system B-Raf (V600E)-kinase (Homo sapiens (Human), UniProt P15056, V600E), for Cc1ccc(C(=O)Nc2ccccc2)cc1Nc1ncnc2cnc(N(C)CCN(C)C)nc12 : > 2 µM

IC50 value, target or system B-Raf (V600E)-kinase (Homo sapiens (Human), UniProt P15056, V600E), for COc1ccc(NC(=O)c2ccc(C(F)(F)F)c(Nc3ncnc4cnc(N5CCCCCC5)nc34)c2)cc1C(F)(F)F : > 2 µM

* * *

Molecular target: B-Raf (V600E)-kinase (Homo sapiens (Human), UniProt P15056, V600E)
Test: Kinase test B-RAF (V600E)
Format: biochemical
Details: B-RAF (V600E) kinase test, 250 μM ATP
pIC50: −log10 of the molar value.
MEASURED_METRIC: pIC50

Some molecules with recorded pIC50:
Recorded result, Cc1ccc(C(=O)Nc2cccc(OC(F)(F)F)c2)cc1Nc1ncnc2cnc(N3CCN(C)CC3)nc12 , pIC50: > 9.00

Recorded result, Cc1ccc(C(=O)Nc2cc(OCCN(C)C)cc(C(F)(F)F)c2)cc1Nc1ncnc2cnc(NCc3ccccc3)nc12 , pIC50: 9.00

Would you kindly look at the next entry?
Recorded result, Cc1ccc(C(=O)NC2CC2)cc1Nc1ncnc2cnc(N3CCCN(C)CC3)nc12 , pIC50: < 4.82
